FYI, the data here is from ChEMBL document CHEMBL5360568.

TESTED_TARGET: Cholinesterase (Equus caballus)
Sequence (P81908 whole entry): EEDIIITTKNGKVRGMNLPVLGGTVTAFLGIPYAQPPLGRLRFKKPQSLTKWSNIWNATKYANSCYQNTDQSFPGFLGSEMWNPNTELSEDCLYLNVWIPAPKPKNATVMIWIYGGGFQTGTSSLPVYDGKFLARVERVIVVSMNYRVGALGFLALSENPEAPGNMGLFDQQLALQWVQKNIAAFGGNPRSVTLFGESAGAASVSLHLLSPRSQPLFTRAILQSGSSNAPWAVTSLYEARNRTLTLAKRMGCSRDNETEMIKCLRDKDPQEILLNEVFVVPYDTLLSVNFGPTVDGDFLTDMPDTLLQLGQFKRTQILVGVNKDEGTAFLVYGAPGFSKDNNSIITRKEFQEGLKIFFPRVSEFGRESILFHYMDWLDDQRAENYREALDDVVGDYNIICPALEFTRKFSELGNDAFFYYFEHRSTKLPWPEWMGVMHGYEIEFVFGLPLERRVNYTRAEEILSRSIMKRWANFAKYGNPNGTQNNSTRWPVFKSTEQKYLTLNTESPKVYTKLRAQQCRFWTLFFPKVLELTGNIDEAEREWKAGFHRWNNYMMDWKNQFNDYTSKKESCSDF
PROTOCOL_DETAILS: Inhibition of equine serum BuChE using butyrylthiocholine iodide as substrate preincubated for 5 mins followed by substrate addition by DTNB based Ellman's method
pIC50: −log10 of the molar value.
# pIC50 annotations
PARAMETER: pIC50

# COMPOUND, PARAMETER, RESULT_OPERATOR, TEST_VALUE
data = [
    ("CCOP(=O)(OCC)C(Nc1ccccc1C)c1ccc(OCc2nc3ccccc3c(=O)n2-c2ccc(F)cc2)c(OC)c1 (configuration not stated)", "pIC50", "=", 4.47),
    ("CCOP(=O)(OCC)C(Nc1ccc(C)cc1)c1ccc(OCc2nc3ccccc3c(=O)n2-c2ccc(F)cc2)c(OC)c1 (configuration not stated)", "pIC50", "<", 4.00),
    ("CCOP(=O)(OCC)C(Nc1ccccc1OC)c1ccc(OCc2nc3ccccc3c(=O)n2-c2ccc(F)cc2)c(OC)c1 (configuration not stated)", "pIC50", "=", 4.98),
    ("CCOP(=O)(OCC)C(Nc1ccc(Cl)cc1)c1ccc(OCc2nc3ccccc3c(=O)n2-c2ccc(F)cc2)c(OC)c1 (configuration not stated)", "pIC50", "<", 4.00),
    ("CCOP(=O)(OCC)C(Nc1ccccc1C#N)c1ccc(OCc2nc3ccccc3c(=O)n2-c2ccc(F)cc2)c(OC)c1 (configuration not stated)", "pIC50", "=", 4.96),
    ("CCOP(=O)(OCC)C(Nc1ccccc1C(C)=O)c1ccc(OCc2nc3ccccc3c(=O)n2-c2ccc(F)cc2)c(OC)c1 (configuration not stated)", "pIC50", "=", 4.92),
    ("CCOP(=O)(OCC)C(Nc1nncs1)c1ccc(OCc2nc3ccccc3c(=O)n2-c2ccc(F)cc2)c(OC)c1 (configuration not stated)", "pIC50", "<", 4.00),
]

====

Reported pIC50 values are given for each entry in this list.
TESTED_TARGET: Acetylcholinesterase (Electrophorus electricus, UniProt O42275)
Sequence (O42275 whole entry): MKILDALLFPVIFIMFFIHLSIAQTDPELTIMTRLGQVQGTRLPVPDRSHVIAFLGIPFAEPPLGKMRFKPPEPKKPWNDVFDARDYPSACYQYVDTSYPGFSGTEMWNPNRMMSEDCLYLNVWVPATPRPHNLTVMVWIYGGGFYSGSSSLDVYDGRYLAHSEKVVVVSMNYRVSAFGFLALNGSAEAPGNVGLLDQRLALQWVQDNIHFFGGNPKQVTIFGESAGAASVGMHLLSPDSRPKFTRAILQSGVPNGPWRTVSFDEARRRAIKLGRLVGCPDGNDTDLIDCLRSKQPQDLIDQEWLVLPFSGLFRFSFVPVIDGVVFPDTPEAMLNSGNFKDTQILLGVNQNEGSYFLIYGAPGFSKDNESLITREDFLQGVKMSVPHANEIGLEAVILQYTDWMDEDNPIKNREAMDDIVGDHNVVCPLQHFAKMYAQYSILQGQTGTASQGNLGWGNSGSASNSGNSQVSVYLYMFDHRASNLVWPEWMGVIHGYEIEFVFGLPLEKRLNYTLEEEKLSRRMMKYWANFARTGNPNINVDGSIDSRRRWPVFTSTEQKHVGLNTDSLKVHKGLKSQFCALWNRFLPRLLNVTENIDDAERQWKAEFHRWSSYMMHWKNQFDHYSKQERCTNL
pIC50: −log10 of the molar value.
PARAMETER: pIC50

# COMPOUND, TEST_VALUE
rows = [
    ("CCOP(=O)(OCC)C(Nc1cccc(Cl)c1Cl)c1ccc(OCc2nc3ccccc3c(=O)n2-c2ccc(F)cc2)c(OC)c1 (configuration not stated)", 6.51),
    ("CCOP(=O)(OCC)C(Nc1ccc(Cl)cc1)c1ccc(OCc2nc3ccccc3c(=O)n2-c2ccc(F)cc2)c(OC)c1 (configuration not stated)", 6.19),
    ("CCOP(=O)(OCC)C(Nc1c(C)cccc1C)c1ccc(OCc2nc3ccccc3c(=O)n2-c2ccc(F)cc2)c(OC)c1 (configuration not stated)", 6.45),
    ("CCOP(=O)(OCC)C(Nc1ccccc1Br)c1ccc(OCc2nc3ccccc3c(=O)n2-c2ccc(F)cc2)c(OC)c1 (configuration not stated)", 6.33),
    ("CCOP(=O)(OCC)C(Nc1cc(C)ccc1C)c1ccc(OCc2nc3ccccc3c(=O)n2-c2ccc(F)cc2)c(OC)c1 (configuration not stated)", 6.38),
    ("CCOP(=O)(OCC)C(Nc1ccccc1)c1ccc(OCc2nc3ccccc3c(=O)n2-c2ccc(F)cc2)c(OC)c1 (configuration not stated)", 6.04),
    ("CCOP(=O)(OCC)C(Nc1ccccc1C(F)(F)F)c1ccc(OCc2nc3ccccc3c(=O)n2-c2ccc(F)cc2)c(OC)c1 (configuration not stated)", 6.47),
]

====

Here the recorded IC50 is given for each entry.
TESTED_TARGET: Cholinesterase (Equus caballus)
PROTOCOL_DETAILS: Inhibition of equine serum BuChE using butyrylthiocholine iodide as substrate preincubated for 5 mins followed by substrate addition by DTNB based Ellman's method

# COMPOUND, UNIT_ABBREVIATION, RESULT_OPERATOR, IC50
measured = [
    ("CCOP(=O)(OCC)C(Nc1cccc(Cl)c1Cl)c1ccc(OCc2nc3ccccc3c(=O)n2-c2ccc(F)cc2)c(OC)c1 (stereo not given)", "µM", "=", 23.3),
    ("CCOP(=O)(OCC)C(Nc1ccc(OC)cc1)c1ccc(OCc2nc3ccccc3c(=O)n2-c2ccc(F)cc2)c(OC)c1 (stereo not given)", "µM", ">", 100),
    ("CCOP(=O)(OCC)C(Nc1cc(C)ccc1C)c1ccc(OCc2nc3ccccc3c(=O)n2-c2ccc(F)cc2)c(OC)c1 (stereo not given)", "µM", "=", 18.7),
    ("CCOP(=O)(OCC)C(Nc1cccc(O)c1)c1ccc(OCc2nc3ccccc3c(=O)n2-c2ccc(F)cc2)c(OC)c1 (stereo not given)", "µM", ">", 100),
    ("CCOP(=O)(OCC)C(Nc1ccccc1C(F)(F)F)c1ccc(OCc2nc3ccccc3c(=O)n2-c2ccc(F)cc2)c(OC)c1 (stereo not given)", "µM", ">", 100),
    ("CCOP(=O)(OCC)C(Nc1ccc([N+](=O)[O-])cc1)c1ccc(OCc2nc3ccccc3c(=O)n2-c2ccc(F)cc2)c(OC)c1 (stereo not given)", "µM", ">", 100),
    ("CCOP(=O)(OCC)C(Nc1c(C)cccc1C)c1ccc(OCc2nc3ccccc3c(=O)n2-c2ccc(F)cc2)c(OC)c1 (stereo not given)", "µM", ">", 100),
    ("CCOP(=O)(OCC)C(Nc1ccccc1O)c1ccc(OCc2nc3ccccc3c(=O)n2-c2ccc(F)cc2)c(OC)c1 (stereo not given)", "µM", ">", 100),
    ("CCOP(=O)(OCC)C(Nc1ccccc1)c1ccc(OCc2nc3ccccc3c(=O)n2-c2ccc(F)cc2)c(OC)c1 (stereo not given)", "µM", ">", 100),
    ("CCOP(=O)(OCC)C(Nc1ccccc1Br)c1ccc(OCc2nc3ccccc3c(=O)n2-c2ccc(F)cc2)c(OC)c1 (stereo not given)", "µM", ">", 100),
    ("CCOP(=O)(OCC)C(Nc1ccccc1CC)c1ccc(OCc2nc3ccccc3c(=O)n2-c2ccc(F)cc2)c(OC)c1 (stereo not given)", "µM", "=", 29.6),
    ("CCOP(=O)(OCC)C(Nc1ccc(F)cc1)c1ccc(OCc2nc3ccccc3c(=O)n2-c2ccc(F)cc2)c(OC)c1 (stereo not given)", "µM", "=", 35.4),
    ("CCOP(=O)(OCC)C(Nc1cc(C)cc(C)c1)c1ccc(OCc2nc3ccccc3c(=O)n2-c2ccc(F)cc2)c(OC)c1 (stereo not given)", "µM", "=", 26.4),
    ("CCOP(=O)(OCC)C(Nc1ccc(C(=O)O)cc1)c1ccc(OCc2nc3ccccc3c(=O)n2-c2ccc(F)cc2)c(OC)c1 (stereo not given)", "µM", "=", 20.2),
    ("CCOP(=O)(OCC)C(Nc1ccc(Br)cc1)c1ccc(OCc2nc3ccccc3c(=O)n2-c2ccc(F)cc2)c(OC)c1 (stereo not given)", "µM", ">", 100),
]

====

Endpoint: IC50. System: Acetylcholinesterase (Homo sapiens, UniProt P22303). Items follow.
Sequence (P22303 whole entry): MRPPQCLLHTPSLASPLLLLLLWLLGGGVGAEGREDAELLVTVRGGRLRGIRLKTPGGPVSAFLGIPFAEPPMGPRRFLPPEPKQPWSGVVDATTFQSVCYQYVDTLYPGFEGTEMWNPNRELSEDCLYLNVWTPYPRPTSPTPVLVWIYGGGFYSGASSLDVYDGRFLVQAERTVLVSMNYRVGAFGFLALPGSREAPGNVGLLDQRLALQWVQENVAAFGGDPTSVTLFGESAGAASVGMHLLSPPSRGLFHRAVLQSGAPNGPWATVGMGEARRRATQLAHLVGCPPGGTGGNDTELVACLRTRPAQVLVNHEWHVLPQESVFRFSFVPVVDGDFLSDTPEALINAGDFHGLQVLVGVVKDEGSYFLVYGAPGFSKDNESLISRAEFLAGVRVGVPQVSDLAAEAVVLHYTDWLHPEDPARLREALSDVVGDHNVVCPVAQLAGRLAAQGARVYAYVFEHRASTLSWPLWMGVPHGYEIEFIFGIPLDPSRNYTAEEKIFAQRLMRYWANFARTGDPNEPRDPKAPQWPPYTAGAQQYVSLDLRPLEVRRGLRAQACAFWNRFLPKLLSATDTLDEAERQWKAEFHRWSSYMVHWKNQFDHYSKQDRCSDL

# COMPOUND, TESTED_TARGET, IC50, µM
data = [
    ("CCOP(=O)(OCC)C(Nc1cc(C)ccc1C)c1ccc(OCc2nc3ccccc3c(=O)n2-c2ccc(F)cc2)c(OC)c1 (configuration not stated)", "Acetylcholinesterase (Homo sapiens, UniProt P22303)", 6.05),
    ("CCOP(=O)(OCC)C(Nc1ccccc1C(C)=O)c1ccc(OCc2nc3ccccc3c(=O)n2-c2ccc(F)cc2)c(OC)c1 (configuration not stated)", "Acetylcholinesterase (Homo sapiens, UniProt P22303)", 5.62),
    ("CCOP(=O)(OCC)C(Nc1ccccc1C)c1ccc(OCc2nc3ccccc3c(=O)n2-c2ccc(F)cc2)c(OC)c1 (configuration not stated)", "Acetylcholinesterase (Homo sapiens, UniProt P22303)", 5.35),
    ("CCOP(=O)(OCC)C(Nc1ccccc1C#N)c1ccc(OCc2nc3ccccc3c(=O)n2-c2ccc(F)cc2)c(OC)c1 (configuration not stated)", "Acetylcholinesterase (Homo sapiens, UniProt P22303)", 2.94),
    ("CCOP(=O)(OCC)C(Nc1c(C)cccc1C)c1ccc(OCc2nc3ccccc3c(=O)n2-c2ccc(F)cc2)c(OC)c1 (configuration not stated)", "Acetylcholinesterase (Homo sapiens, UniProt P22303)", 3.02),
    ("CCOP(=O)(OCC)C(Nc1nncs1)c1ccc(OCc2nc3ccccc3c(=O)n2-c2ccc(F)cc2)c(OC)c1 (configuration not stated)", "Acetylcholinesterase (Homo sapiens, UniProt P22303)", 3.37),
    ("CCOP(=O)(OCC)C(Nc1ccc(C(=O)O)cc1)c1ccc(OCc2nc3ccccc3c(=O)n2-c2ccc(F)cc2)c(OC)c1 (configuration not stated)", "Acetylcholinesterase (Homo sapiens, UniProt P22303)", 1.16),
    ("CCOP(=O)(OCC)C(Nc1ccc([N+](=O)[O-])cc1)c1ccc(OCc2nc3ccccc3c(=O)n2-c2ccc(F)cc2)c(OC)c1 (configuration not stated)", "Acetylcholinesterase (Homo sapiens, UniProt P22303)", 1.78),
    ("CCOP(=O)(OCC)C(Nc1cccc(Cl)c1Cl)c1ccc(OCc2nc3ccccc3c(=O)n2-c2ccc(F)cc2)c(OC)c1 (configuration not stated)", "Acetylcholinesterase (Homo sapiens, UniProt P22303)", 2.55),
    ("CCOP(=O)(OCC)C(Nc1ccccc1OC)c1ccc(OCc2nc3ccccc3c(=O)n2-c2ccc(F)cc2)c(OC)c1 (configuration not stated)", "Acetylcholinesterase (Homo sapiens, UniProt P22303)", 2.65),
    ("CCOP(=O)(OCC)C(Nc1ccccc1C(F)(F)F)c1ccc(OCc2nc3ccccc3c(=O)n2-c2ccc(F)cc2)c(OC)c1 (configuration not stated)", "Acetylcholinesterase (Homo sapiens, UniProt P22303)", 4.93),
    ("CCOP(=O)(OCC)C(Nc1cccc(O)c1)c1ccc(OCc2nc3ccccc3c(=O)n2-c2ccc(F)cc2)c(OC)c1 (configuration not stated)", "Acetylcholinesterase (Homo sapiens, UniProt P22303)", 4.34),
]
